- Tested on: MDA-MB-435 melanoma
- assay.notes: NCI-60 one-dose screen, 48 h
- run.conditions: 10 µM
About 83,000 compounds went through this panel and 20% of them were active in at least one assay; those are over-represented in the sample as a whole. Activity calls are given as the source filed them. How the source made its calls: active means growth percent below 10; inactive means the rest.
The reply should name one outcome from t (active), f (inactive)

Solved cases below.
{"compound": "O=C(N/N=C/c1ccc(Cl)cc1)c1ccccc1Nc1cccc(C(F)(F)F)c1", "group": "f"}
{"compound": "O=c1oc2c(cc1-c1ccc(F)cc1)C(O)Oc1ccccc1-2 (stereo not given)", "group": "t"}
{"compound": "COc1ccc(-c2nn(-c3cccc(Cl)c3)cc2-c2nc(N)[nH]c(=O)c2C#N)cc1", "group": "t"}
{"compound": "C=CCSC(CC)(CC)C(=O)NC", "group": "f"}

# fetch the recorded call for `CNC(=O)c1cn(C2CC2)c2cc(N3CCN(C(=O)c4cc(OC)c(OC)c(OC)c4)CC3)c(F)cc2c1=O` here
f

Please do the same for `COc1ccc(-c2cc(-c3ccc(OC)c(OC)c3)nc(SCCCC(=O)NO)n2)cc1` as well.
t

Please do the same for `COc1ccc(-c2onc(N)c2-c2cc(OC)c3c(c2)OCO3)cc1` as well.
t

Please do the same for OC(CNc1ccnc2cc(Cl)ccc12)CNC1CCCCC1 (stereo not given) as well.
f

Please do the same for `CCN(CCCNc1cc2c(c(N)c1S(=O)(=O)O)C(=O)c1ccccc1C2=O)c1ccccc1` as well.
f

Please do the same for `Cc1cc(Cl)ccc1Nc1nc(C(F)(F)F)ccc1C(=O)N/N=C/c1cccc(O)c1` as well.
f

====

- System: ACHN renal
- assay.notes: NCI-60 one-dose screen, 48 h
- run.conditions: 10 µM
The panel holds about 83,000 compounds, 20% with a hit somewhere; the sample as a whole holds those more often. Active and inactive are the calls of the source. The calls were made as follows: active = growth percent below 10; inactive = the rest.
The reply should name one outcome from Yes = active, No = inactive

Solved cases below.
{"compound": "Cc1ccc(C(SCC(N)C(=O)O)(c2ccc(C)cc2)c2ccc(C)cc2)cc1 (centres undefined)", "group": "No"}
{"compound": "O=C1CC(SC(=S)C2CCCC2=O)C(=O)N1 (centres undefined)", "group": "No"}

Read the next record carefully.
# fetch the recorded call for `CN(C)CCOc1cccc(NC2=C(Cl)C(=O)C(Nc3cccc(OCCN(C)C)c3)=C(Cl)C2=O)c1` here
Yes

====

- Tested on: MOLT-4 leukemia
- assay.notes: NCI-60 one-dose screen, 48 h
- run.conditions: 10 µM
About 83,000 compounds went through this panel and 20% of them were active in at least one assay; those are over-represented in the sample as a whole. The source made the active and inactive calls. The calls were made as follows: active = growth percent below 10; inactive = the rest.
The reply should name one outcome from yes (1) for active, no (0) for inactive

{"molecule": "O=C1/C(=C/c2ccc3c(c2)OCO3)SC(=S)N1C1c2ccccc2Oc2ccccc21", "group": "no (0)"}

# fetch the recorded call for `CCc1ccc(C2=NN(c3ccc(S(C)(=O)=O)cc3)C(=O)CC2)cc1` here
no (0)

Please do the same for CN(C)c1ncnc2c1nnn2C1OC(CO)C(O)C1O (stereo not given) as well.
yes (1)

Please do the same for CC(C1=C(CN(C(=O)Cc2cn(-c3ccccc3)nc2-c2ccc(Cl)cc2)C(C)C)Cc2ccccc21)c1ccccn1 (stereo not given) as well.
no (0)

Please do the same for `COc1cc(-c2nn(-c3cccc(NC(=O)CCN4CCN(Cc5ccccc5)CC4)c3)cc2-c2ccncc2)ccc1Cl` as well.
yes (1)
